Assay: Patients' blood levels of naltrexone and 6-beta-naltrexone after subcutaneous pellet implant
Format: in vivo, human
Settings: human, blood, sc, 37 days since implant; patients' blood; pellet of Examples 1-4; read-out: Ntx level
experimental-endpoint: concentration at 888 h

# query: concentration at 888 h of entry O=C1CC[C@@]2(O)[C@H]3Cc4ccc(O)c5c4[C@@]2(CCN3CC2CC2)[C@H]1O5 [naltrexone, N-cyclopropylmethylnoroxy morphone]
< 3 ng/mL

====

Experiment: Patients' blood levels of naltrexone and 6-beta-naltrexone after subcutaneous pellet implant
Assay type: in vivo, human
Conditions: human, blood, sc, 51 days since implant; patients' blood; pellet of Examples 1-4; read-out: Ntx level
experimental-endpoint: concentration at 1224 h

# query: concentration at 1224 h of entry O=C1CC[C@@]2(O)[C@H]3Cc4ccc(O)c5c4[C@@]2(CCN3CC2CC2)[C@H]1O5 [naltrexone, N-cyclopropylmethylnoroxy morphone]
8 ng/mL

====

Assay: Patients' blood levels of naltrexone and 6-beta-naltrexone after subcutaneous pellet implant
Assay type: in vivo, human
Conditions: human, blood, sc, 1000 mg, inventive implant; leveling off, for approximately eighty days; read-out: level of naltrexone in patient's bloodstream
experimental-endpoint: concentration at 1920 h

# query: concentration at 1920 h of entry O=C1CC[C@@]2(O)[C@H]3Cc4ccc(O)c5c4[C@@]2(CCN3CC2CC2)[C@H]1O5 [naltrexone, N-cyclopropylmethylnoroxy morphone]
2 to 8 ng/mL

====

Test: Patients' blood levels of naltrexone and 6-beta-naltrexone after subcutaneous pellet implant
Format: in vivo, human
Settings: human, blood, sc, 62 days since implant; patients' blood; pellet of Examples 1-4; read-out: Ntx level
experimental-endpoint: concentration at 1488 h

# query: concentration at 1488 h of entry O=C1CC[C@@]2(O)[C@H]3Cc4ccc(O)c5c4[C@@]2(CCN3CC2CC2)[C@H]1O5 [naltrexone, N-cyclopropylmethylnoroxy morphone]
< 4 ng/mL

====

Assay: Patients' blood levels of naltrexone and 6-beta-naltrexone after subcutaneous pellet implant
Format: in vivo, human
Conditions: human, blood, sc, 33 days since implant; patients' blood; pellet of Examples 1-4; read-out: Ntx level
experimental-endpoint: concentration at 792 h

# query: concentration at 792 h of entry O=C1CC[C@@]2(O)[C@H]3Cc4ccc(O)c5c4[C@@]2(CCN3CC2CC2)[C@H]1O5 [naltrexone, N-cyclopropylmethylnoroxy morphone]
< 2 ng/mL

====

Test: Patients' blood levels of naltrexone and 6-beta-naltrexone after subcutaneous pellet implant
Type: in vivo, human
Details: human, blood, sc, 29 days since implant; patients' blood; pellet of Examples 1-4; read-out: Ntx level
experimental-endpoint: concentration at 696 h
# output: numeric value plus its unit

# query: concentration at 696 h of entry O=C1CC[C@@]2(O)[C@H]3Cc4ccc(O)c5c4[C@@]2(CCN3CC2CC2)[C@H]1O5 [naltrexone, N-cyclopropylmethylnoroxy morphone]
2 ng/mL

====

Assay: Patients' blood levels of naltrexone and 6-beta-naltrexone after subcutaneous pellet implant
Format: in vivo, human
Conditions: human, blood, sc, 65 days since implant; patients' blood; pellet of Examples 1-4; read-out: Ntx level
experimental-endpoint: concentration at 1560 h

# query: concentration at 1560 h of entry O=C1CC[C@@]2(O)[C@H]3Cc4ccc(O)c5c4[C@@]2(CCN3CC2CC2)[C@H]1O5 [naltrexone, N-cyclopropylmethylnoroxy morphone]
< 2 ng/mL

====

Assay: Patients' blood levels of naltrexone and 6-beta-naltrexone after subcutaneous pellet implant
Assay type: in vivo, human
Details: human, blood, sc, 78 days since implant; patients' blood; pellet of Examples 1-4; read-out: Ntx level
experimental-endpoint: concentration at 1872 h (ng/mL)
Give bare numbers, in ng/mL.

# query: concentration at 1872 h of entry O=C1CC[C@@]2(O)[C@H]3Cc4ccc(O)c5c4[C@@]2(CCN3CC2CC2)[C@H]1O5 [naltrexone, N-cyclopropylmethylnoroxy morphone]
4

====

Assay: Patients' blood levels of naltrexone and 6-beta-naltrexone after subcutaneous pellet implant
Type: in vivo, human
Conditions: human, blood, sc, 22 days since implant; patients' blood; pellet of Examples 1-4; read-out: Ntx level
experimental-endpoint: concentration at 528 h (ng/mL)
Give bare numbers, in ng/mL.

# query: concentration at 528 h of entry O=C1CC[C@@]2(O)[C@H]3Cc4ccc(O)c5c4[C@@]2(CCN3CC2CC2)[C@H]1O5 [naltrexone, N-cyclopropylmethylnoroxy morphone]
7

====

Test: Patients' blood levels of naltrexone and 6-beta-naltrexone after subcutaneous pellet implant
Format: in vivo, human
Conditions: human, blood, sc, 60 days since implant; patients' blood; pellet of Examples 1-4; read-out: Ntx level
experimental-endpoint: concentration at 1440 h (ng/mL)
One number for each entry, in ng/mL.

# query: concentration at 1440 h of entry O=C1CC[C@@]2(O)[C@H]3Cc4ccc(O)c5c4[C@@]2(CCN3CC2CC2)[C@H]1O5 [naltrexone, N-cyclopropylmethylnoroxy morphone]
10

====

Experiment: Patients' blood levels of naltrexone and 6-beta-naltrexone after subcutaneous pellet implant
Type: in vivo, human
Conditions: human, blood, sc, 8 days since implant; patients' blood; pellet of Examples 1-4; read-out: Ntx level
experimental-endpoint: concentration at 192 h
# output: numeric value plus its unit

# query: concentration at 192 h of entry O=C1CC[C@@]2(O)[C@H]3Cc4ccc(O)c5c4[C@@]2(CCN3CC2CC2)[C@H]1O5 [naltrexone, N-cyclopropylmethylnoroxy morphone]
7 ng/mL

====

Test: Patients' blood levels of naltrexone and 6-beta-naltrexone after subcutaneous pellet implant
Type: in vivo, human
Conditions: human, blood, sc, 14 days since implant; patients' blood; pellet of Examples 1-4; read-out: Ntx level
experimental-endpoint: concentration at 336 h (ng/mL)
One number for each entry, in ng/mL.

# query: concentration at 336 h of entry O=C1CC[C@@]2(O)[C@H]3Cc4ccc(O)c5c4[C@@]2(CCN3CC2CC2)[C@H]1O5 [naltrexone, N-cyclopropylmethylnoroxy morphone]
11

====

Assay: Patients' blood levels of naltrexone and 6-beta-naltrexone after subcutaneous pellet implant
Type: in vivo, human
Settings: human, blood, sc, 28 days since implant; patients' blood; pellet of Examples 1-4; read-out: Ntx level
experimental-endpoint: concentration at 672 h (ng/mL)
Give bare numbers, in ng/mL.

# query: concentration at 672 h of entry O=C1CC[C@@]2(O)[C@H]3Cc4ccc(O)c5c4[C@@]2(CCN3CC2CC2)[C@H]1O5 [naltrexone, N-cyclopropylmethylnoroxy morphone]
2

====

Experiment: Patients' blood levels of naltrexone and 6-beta-naltrexone after subcutaneous pellet implant
Format: in vivo, human
Conditions: human, blood, sc, 34 days since implant; patients' blood; pellet of Examples 1-4; read-out: Ntx level
experimental-endpoint: concentration at 816 h (ng/mL)
Answers are plain numbers, in ng/mL.

# query: concentration at 816 h of entry O=C1CC[C@@]2(O)[C@H]3Cc4ccc(O)c5c4[C@@]2(CCN3CC2CC2)[C@H]1O5 [naltrexone, N-cyclopropylmethylnoroxy morphone]
4

====

Assay: Patients' blood levels of naltrexone and 6-beta-naltrexone after subcutaneous pellet implant
Assay type: in vivo, human
Conditions: human, blood, sc, 39 days since implant; patients' blood; pellet of Examples 1-4; read-out: Ntx level
experimental-endpoint: concentration at 936 h (ng/mL)
Answers are plain numbers, in ng/mL.

# query: concentration at 936 h of entry O=C1CC[C@@]2(O)[C@H]3Cc4ccc(O)c5c4[C@@]2(CCN3CC2CC2)[C@H]1O5 [naltrexone, N-cyclopropylmethylnoroxy morphone]
5

====

Test: Patients' blood levels of naltrexone and 6-beta-naltrexone after subcutaneous pellet implant
Assay type: in vivo, human
Settings: human, blood, sc, 32 days since implant; patients' blood; pellet of Examples 1-4; read-out: Ntx level
experimental-endpoint: concentration at 768 h (ng/mL)
Answers are plain numbers, in ng/mL.

# query: concentration at 768 h of entry O=C1CC[C@@]2(O)[C@H]3Cc4ccc(O)c5c4[C@@]2(CCN3CC2CC2)[C@H]1O5 [naltrexone, N-cyclopropylmethylnoroxy morphone]
7

====

Experiment: Patients' blood levels of naltrexone and 6-beta-naltrexone after subcutaneous pellet implant
Type: in vivo, human
Settings: human, blood, sc, 38 days since implant; patients' blood; pellet of Examples 1-4; read-out: Ntx level
experimental-endpoint: concentration at 912 h

# query: concentration at 912 h of entry O=C1CC[C@@]2(O)[C@H]3Cc4ccc(O)c5c4[C@@]2(CCN3CC2CC2)[C@H]1O5 [naltrexone, N-cyclopropylmethylnoroxy morphone]
< 2 ng/mL

====

Experiment: Patients' blood levels of naltrexone and 6-beta-naltrexone after subcutaneous pellet implant
Format: in vivo, human
Conditions: human, blood, sc, 55 days since implant; patients' blood; pellet of Examples 1-4; read-out: Ntx level
experimental-endpoint: concentration at 1320 h (ng/mL)
Give bare numbers, in ng/mL.

# query: concentration at 1320 h of entry O=C1CC[C@@]2(O)[C@H]3Cc4ccc(O)c5c4[C@@]2(CCN3CC2CC2)[C@H]1O5 [naltrexone, N-cyclopropylmethylnoroxy morphone]
36
